Quick list: Dmax per entry.
Molecular target: IKZF2 (Homo sapiens (Human), UniProt Q96SW2+Q9UKS7)
Sequence (Q9UKS7 whole entry): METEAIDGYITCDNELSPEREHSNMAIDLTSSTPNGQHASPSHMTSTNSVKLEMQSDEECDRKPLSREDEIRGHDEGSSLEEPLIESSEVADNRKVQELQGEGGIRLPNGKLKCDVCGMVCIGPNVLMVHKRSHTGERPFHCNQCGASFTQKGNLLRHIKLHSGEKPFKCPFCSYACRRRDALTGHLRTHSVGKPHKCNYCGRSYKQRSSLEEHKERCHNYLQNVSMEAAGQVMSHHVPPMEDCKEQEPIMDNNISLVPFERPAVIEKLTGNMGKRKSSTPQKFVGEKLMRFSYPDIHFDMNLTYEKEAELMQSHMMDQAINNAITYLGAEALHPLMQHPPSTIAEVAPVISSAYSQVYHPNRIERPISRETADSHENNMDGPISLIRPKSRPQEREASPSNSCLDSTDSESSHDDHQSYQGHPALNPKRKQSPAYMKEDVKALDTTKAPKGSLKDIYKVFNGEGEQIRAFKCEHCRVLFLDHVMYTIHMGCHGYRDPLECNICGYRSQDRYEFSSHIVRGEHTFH
Sequence (Q96SW2 whole entry): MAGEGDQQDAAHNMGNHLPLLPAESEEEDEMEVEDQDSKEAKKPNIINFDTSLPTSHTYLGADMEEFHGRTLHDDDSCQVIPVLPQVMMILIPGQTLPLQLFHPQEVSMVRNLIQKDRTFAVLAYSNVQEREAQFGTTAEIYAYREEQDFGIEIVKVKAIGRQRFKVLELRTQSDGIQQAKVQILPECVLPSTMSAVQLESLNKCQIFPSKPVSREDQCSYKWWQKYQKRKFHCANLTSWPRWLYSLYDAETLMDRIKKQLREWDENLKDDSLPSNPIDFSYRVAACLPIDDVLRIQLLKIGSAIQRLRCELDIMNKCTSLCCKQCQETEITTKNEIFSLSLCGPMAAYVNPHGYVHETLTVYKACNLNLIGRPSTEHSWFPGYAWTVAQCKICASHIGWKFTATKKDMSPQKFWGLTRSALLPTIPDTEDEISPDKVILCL
Sequence (Q16531 2-1140 partner): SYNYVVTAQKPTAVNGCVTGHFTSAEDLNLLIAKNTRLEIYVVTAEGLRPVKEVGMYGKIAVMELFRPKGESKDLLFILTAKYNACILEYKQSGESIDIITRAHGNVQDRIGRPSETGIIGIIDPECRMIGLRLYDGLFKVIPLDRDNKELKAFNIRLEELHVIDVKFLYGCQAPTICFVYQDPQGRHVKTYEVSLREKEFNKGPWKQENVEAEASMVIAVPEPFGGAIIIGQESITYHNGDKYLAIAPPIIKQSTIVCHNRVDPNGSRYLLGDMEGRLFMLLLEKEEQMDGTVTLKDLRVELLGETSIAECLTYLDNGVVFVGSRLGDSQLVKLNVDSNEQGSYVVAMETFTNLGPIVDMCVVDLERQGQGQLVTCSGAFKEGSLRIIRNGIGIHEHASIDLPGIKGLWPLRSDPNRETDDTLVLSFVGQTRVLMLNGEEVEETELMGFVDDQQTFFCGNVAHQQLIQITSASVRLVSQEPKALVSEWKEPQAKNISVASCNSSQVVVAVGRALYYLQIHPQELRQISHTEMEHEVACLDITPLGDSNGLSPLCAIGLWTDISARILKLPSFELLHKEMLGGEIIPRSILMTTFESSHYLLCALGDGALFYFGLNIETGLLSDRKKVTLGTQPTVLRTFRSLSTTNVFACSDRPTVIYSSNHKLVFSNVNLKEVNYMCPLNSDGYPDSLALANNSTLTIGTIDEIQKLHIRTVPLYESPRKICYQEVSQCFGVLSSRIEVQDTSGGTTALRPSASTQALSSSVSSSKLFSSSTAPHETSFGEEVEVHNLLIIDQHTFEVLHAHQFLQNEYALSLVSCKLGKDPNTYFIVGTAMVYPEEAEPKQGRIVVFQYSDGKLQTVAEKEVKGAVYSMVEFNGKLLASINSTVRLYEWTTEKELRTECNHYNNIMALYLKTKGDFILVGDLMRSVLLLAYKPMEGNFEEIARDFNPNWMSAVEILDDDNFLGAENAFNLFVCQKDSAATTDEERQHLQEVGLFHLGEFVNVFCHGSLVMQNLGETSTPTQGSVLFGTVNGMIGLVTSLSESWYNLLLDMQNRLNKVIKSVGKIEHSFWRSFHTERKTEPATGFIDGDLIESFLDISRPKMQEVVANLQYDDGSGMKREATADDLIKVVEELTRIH
Assay: In vitro IKZF2 HiBit Assay (HEK293T Flp-in-HiBiT cells)
Assay type: cell-based
Conditions: HEK-293T; HEK293T Flp-in-HiBiT cells, 6 hrs incubation; read-out: IKZF2 HiBit Dmax (%)

1) CC(C)Nc1n[nH]c2c(CN3CCC(F)CC3)cc(-c3ccc4c(c3F)CN(C3CCC(=O)NC3=O)C4=O)nc12 (stereo not shown) ... > 80%

Value lookup for Dmax; key = CC(C)Nc1n[nH]c2c(CN3CC4(COC4)C3)cc(-c3ccc4c(c3F)CN(C3CCC(=O)NC3=O)C4=O)nc12 (stereo not shown)
60 to 80%

Value lookup for Dmax; key = Cn1ccc2c(CN3CC4(CCOCC4)C3)cc(-c3ccc4c(c3)CN(C3CCC(=O)NC3=O)C4=O)nc21 (stereo not shown)
> 80%

Value lookup for Dmax; key = Cn1ccc2c(CN3CC(O)C3)cc(-c3ccc4c(c3)CN(C3CCC(=O)NC3=O)C4=O)nc21 (stereo not shown)
> 80%

----------
Biological target: IKZF2 (Homo sapiens (Human), UniProt Q96SW2+Q9UKS7)
Assay: In vitro IKZF2 HiBit Assay (HEK293T Flp-in-HiBiT cells)
Type: cell-based
Settings: HEK293T Flp-in-HiBiT cells, 6 hrs incubation; read-out: IKZF2 HiBit DC50
outcome.measure: DC50

Worked set:
1. Cc1cc2c(CN3CCCC3)cc(-c3ccc4c(c3)CN(C3CCC(=O)NC3=O)C4=O)nc2n1C1COC1 (stereo not shown) ... 0.001 to 0.01 µM
2. Cn1ccc2c(CN3CCS(=O)(=O)CC3)cc(-c3ccc4c(c3)CN(C3CCC(=O)NC3=O)C4=O)nc21 (stereo not shown) ... 0.1 to 1 µM
3. COC1CCN(Cc2cc(-c3ccc4c(c3F)CN(C3CCC(=O)NC3=O)C4=O)nc3c(NC(C)C)n[nH]c23)CC1 (stereo not shown) ... 0.001 to 0.01 µM

Here's the next entry for you.
Value lookup for DC50; key = O=C1CCC(N2Cc3cc(-c4cc(CN5CC6COCC6C5)c5ccn(C6COC6)c5n4)ccc3C2=O)C(=O)N1 (stereo not shown)
0.001 to 0.01 µM

----------
Target: IKZF2 (Homo sapiens (Human), UniProt Q96SW2+Q9UKS7)
Test: In vitro IKZF2 HiBit Assay (HEK293T Flp-in-HiBiT cells)
Type: cell-based
Conditions: HEK-293T; HEK293T Flp-in-HiBiT cells, 6 hrs incubation; read-out: IKZF2 HiBit Dmax (%)
Quick list: Dmax per entry.

Worked set:
1. Cn1ccc2c(CN3CCC(F)(F)CC3)cc(-c3ccc4c(c3)CN(C3CCC(=O)NC3=O)C4=O)nc21 (stereo not drawn) [Example 60] ... 60 to 80%
2. O=C1CCC(N2Cc3cc(-c4ncn5ccc(CN6CCCC6)cc45)ccc3C2=O)C(=O)N1 (stereo not drawn) [Example 312] ... 20 to 40%
3. CC(=O)N1CC(n2ccc3c(CN4CCCC4)cc(-c4ccc5c(c4)CN(C4CCC(=O)NC4=O)C5=O)nc32)C1 (stereo not drawn) [Example 256] ... > 80%
4. Cn1ncc2nc(-c3ccc4c(c3)CN(C3CCC(=O)NC3=O)C4=O)cc(CN3CCCC3)c21 (stereo not drawn) [Example 310] ... > 80%
5. Cn1ccc(-n2ccc3c(CN4CCCC4)cc(-c4ccc5c(c4)CN([C@H]4CCC(=O)NC4=O)C5=O)nc32)n1 [Example 265] ... > 80%

Value lookup for Dmax; key = Cc1nc2c(CN3CCCC3)cc(-c3ccc4c(c3)CN(C3CCC(=O)NC3=O)C4=O)nc2o1 (stereo not drawn) [Example 197]
60 to 80%

Value lookup for Dmax; key = CCn1ccc2nc(-c3ccc4c(c3)CN(C3CCC(=O)NC3=O)C4=O)cc(CN3CCC3)c21 (stereo not drawn) [Example 124]
> 80%

Value lookup for Dmax; key = O=C1CCC(N2Cc3c(ccc(-c4cc(CN5CCC(F)CC5)c5ccn(C6CS(=O)(=O)C6)c5n4)c3F)C2=O)C(=O)N1 (stereo not drawn) [Example 268]
> 80%

Value lookup for Dmax; key = O=C1CCC(N2Cc3cc(-c4cc(CN5CC(CO)C5)c5ccn(C6COC6)c5n4)ccc3C2=O)C(=O)N1 (stereo not drawn) [Example 165]
60 to 80%

----------
Molecular target: IKZF2 (Homo sapiens (Human), UniProt Q96SW2+Q9UKS7)
Experiment: In vitro IKZF2 HiBit Assay (HEK293T Flp-in-HiBiT cells)
Type: cell-based
Conditions: HEK293T Flp-in-HiBiT cells, 6 hrs incubation; read-out: IKZF2 HiBit DC50
outcome.measure: DC50

Could you share what DC50 was measured for O=C1CCC(N2Cc3cc(-c4cc(CN5CCCC5)c5nccc(OC(F)F)c5n4)ccc3C2=O)C(=O)N1 (stereo not shown) , tested on IKZF2 (Homo sapiens (Human), UniProt Q96SW2+Q9UKS7)?
1 to 10 nM

Could you share what DC50 was measured for O=C1CCC(N2Cc3cc(-c4cc(CN5CCCC5)c5c(n4)C(=O)NC5)ccc3C2=O)C(=O)N1 (stereo not shown) , tested on IKZF2 (Homo sapiens (Human), UniProt Q96SW2+Q9UKS7)?
> 10000 nM

Could you share what DC50 was measured for Cn1ccc2c(C3CCCCN3)cc(-c3ccc4c(c3)CN([C@H]3CCC(=O)NC3=O)C4=O)nc21 (stereo partly shown) , tested on IKZF2 (Homo sapiens (Human), UniProt Q96SW2+Q9UKS7)?
10 to 100 nM

----------
Molecular target: IKZF2 (Homo sapiens (Human), UniProt Q96SW2+Q9UKS7)
Experiment: In vitro IKZF2 FACS Assay in Jurkat cells
Type: cell-based
Details: 24 hrs, half maximal degradation concentration
Quick list: DC50 per entry.

Worked set:
1. O=C1CCC(N2Cc3cc(-c4cc(CN5CCCC5)cc5cncn45)ccc3C2=O)C(=O)N1 (centres unmarked) [Example 1] ... 0.01 to 0.1 µM
2. CC(C)Nc1n[nH]c2c(CN3CCC(C(F)(F)F)CC3)cc(-c3ccc4c(c3F)CN(C3CCC(=O)NC3=O)C4=O)nc12 (centres unmarked) [Example 290] ... 0.01 to 0.1 µM
3. Cn1ccc2c(CN3CCCC3)c(Cl)c(-c3ccc4c(c3)CN(C3CCC(=O)NC3=O)C4=O)nc21 (centres unmarked) [Example 229] ... 0.001 to 0.01 µM

Could you share what DC50 was measured for COC1CCN(Cc2cc(-c3ccc4c(c3)CN(C3CCC(=O)NC3=O)C4=O)nc3c2ccn3C2COC2)CC1 (centres unmarked) [Example 189] , tested on IKZF2 (Homo sapiens (Human), UniProt Q96SW2+Q9UKS7)?
0.001 to 0.01 µM

Could you share what DC50 was measured for O=C1CCC(N2Cc3cc(-c4ncc5cc(CN6CCCC6)ccn45)ccc3C2=O)C(=O)N1 (centres unmarked) [Example 52] , tested on IKZF2 (Homo sapiens (Human), UniProt Q96SW2+Q9UKS7)?
0.01 to 0.1 µM

Could you share what DC50 was measured for CC(C)Nc1n[nH]c2c(CN3CCC(F)CC3)cc(-c3ccc4c(c3F)CN(C3CCC(=O)NC3=O)C4=O)nc12 (centres unmarked) [Example 282] , tested on IKZF2 (Homo sapiens (Human), UniProt Q96SW2+Q9UKS7)?
0.01 to 0.1 µM

Could you share what DC50 was measured for O=C1CCC(N2Cc3c(ccc(-c4cc(CN5CCC(F)CC5)c5ccn(C6CS(=O)(=O)C6)c5n4)c3F)C2=O)C(=O)N1 (centres unmarked) [Example 268] , tested on IKZF2 (Homo sapiens (Human), UniProt Q96SW2+Q9UKS7)?
0.001 to 0.01 µM

----------
Quick list: DC50 per entry.
Molecular target: IKZF2 (Homo sapiens (Human), UniProt Q96SW2+Q9UKS7)
Experiment: In vitro IKZF2 FACS Assay in Jurkat cells
Assay type: cell-based
Conditions: 24 hrs, half maximal degradation concentration

Worked set:
1. CN(C)c1ccnc2c(CN3CCCC3)cc(-c3ccc4c(c3)CN(C3CCC(=O)NC3=O)C4=O)nc12 (stereo not shown) [Example 237] ... 10 to 100 nM
2. O=C1CCC(N2Cc3cc(-c4cc(CN5CCC(CO)CC5)c5ccn(C6COC6)c5n4)ccc3C2=O)C(=O)N1 (stereo not shown) [Example 163] ... 1 to 10 nM
3. O=C1CCC(N2Cc3cc(-c4cc(CN5CCCC5)c5cn[nH]c5n4)ccc3C2=O)C(=O)N1 (stereo not shown) [Example 105] ... 1 to 10 nM

Value lookup for DC50; key = O=C1CCC(N2Cc3c(ccc(-c4cc(CN5CCC6(CC5)COC6)c5ccn(C6CS(=O)(=O)C6)c5n4)c3F)C2=O)C(=O)N1 (stereo not shown) [Example 272]
1 to 10 nM

Cited source for all entries: patent US20250214991A1
